test system: SH-SY5Y; assay: Cytotoxicity against human SH-SY5Y cells measured after 24 hrs by MTT assay; format: functional, cell-based
pIC50 for assorted compounds
Just the number, please; pIC50 means minus log10 of the concentration in mol/L.

QUERY: Complete the entry with pIC50 for C#CCNC1=C(Cl)C(=O)c2ccccc2C1=O
RESULT: 5.34

QUERY: Return value of pIC50 for input C#CCN(C)C1=CC(=O)c2ccccc2C1=O , no commentary.
RESULT: 4.66

QUERY: Output measured pIC50 for this item: C#CCNC1=CC(=O)c2c(O)ccc(O)c2C1=O
RESULT: 4.82

QUERY: Identify the reported pIC50 for the following entry. C#CCN(C)C1=C(Cl)C(=O)c2ccccc2C1=O
RESULT: 5.48

* * *

experiment: Toxicity in human SH-SY5Y cells assessed by intracellular dehydrogenase activity at 10 uM measured after 24 hrs by WST-1 assay; format: cell-based; conditions: read-out: Activity
property: viability at 24 h, 10 µM (%)
Reply numerically in %, unit not repeated.

QUERY: Supply measured viability at 24 h, 10 µM of C#CCNC1=CC(=O)c2cccc(OCc3ccccc3)c2C1=O in your reply.
RESULT: 89

* * *

assay: Permeability of compound at pH 7.4 measured after 6 hrs by PAMPA assay
List of Papp at 6 h values.
Entry format: amount then unit.

Solved cases (2 shown):
[
  {
    "smiles": "C#CCNC1=CC(=O)c2cccc(OCC)c2C1=O",
    "Papp at 6 h": "18.5 ×10⁻⁶ cm/s"
  },
  {
    "smiles": "C#CCNC1=CC(=O)c2cccc(OC)c2C1=O",
    "Papp at 6 h": "18.8 ×10⁻⁶ cm/s"
  }
]

Kindly consider the entry below.
QUERY: Return reported Papp at 6 h. Input compound: C#CCNC1=C(Cl)C(=O)c2ccccc2C1=O
RESULT: 29.4 ×10⁻⁶ cm/s

* * *

Here, each record is paired with measured Selectivity Index data.
species on record: Homo sapiens; assay: Selectivity index, ratio of IC50 for human MAO-A to IC50 for human MAO-B using Kynuramine as substrate measured by plate reader method
Respond with the number and no other words.

QUERY: Given the compound C#CCNC1=C(Cl)C(=O)c2ccccc2C1=O , write its reported Selectivity Index.
RESULT: 155

* * *

test system: SH-SY5Y; test: Cytotoxicity against human SH-SY5Y cells measured after 24 hrs by MTT assay; assay type: functional, cell-based
// IC50 lookup, one value per entry

QUERY: Read off the recorded IC50 for C#CCNC1=CC(=O)c2cccc(OC)c2C1=O
RESULT: > 32 µM

QUERY: Recall and state the measured IC50 for C#CCNC1=CC(=O)c2ccccc2C1=O .
RESULT: > 64 µM

QUERY: Item C#CCNC1=CC(=O)c2cccc(OCc3ccccc3)c2C1=O : provide IC50
RESULT: > 64 µM

QUERY: Complete the entry with IC50 for C#CCNC1=CC(=O)c2cccc(OCC)c2C1=O
RESULT: > 64 µM

* * *

species: Homo sapiens; experiment: Selectivity index, ratio of IC50 for human MAO-A to IC50 for human MAO-B using Kynuramine as substrate measured by plate reader method
property: Selectivity Index

Previously resolved entries follow.
[
  {
    "smiles": "C#CCNC1=CC(=O)c2ccccc2C1=O",
    "property": "Selectivity Index",
    "measured": 36
  },
  {
    "smiles": "C#CCN(C)C1=CC(=O)c2ccccc2C1=O",
    "property": "Selectivity Index",
    "measured": 0.77
  }
]

QUERY: Recall and state the measured Selectivity Index for C#CCN(C)C1=C(Cl)C(=O)c2ccccc2C1=O .
RESULT: 71
